System: PD-L1 (PD-L1 aAPC/CHO-K1 cells, Jurkat-PD-1-NFAT effector cells)
Test: Nuclear Factor of Activated T-cells (NFAT) assay
Type: cell-based
Settings: Cricetulus griseus; PD-L1 aAPC/CHO-K1 + Jurkat-PD-1-NFAT cells, 24 hours
# Lookup of reported EC50 keyed by entry
assay_readout: EC50

compound: Cc1c(Nc2nccc3cc(CN4CC[C@@](C)(O)C4)cnc23)cccc1-c1cccc(NC(=O)c2nc3c(n2C)CCN(C[C@H]2CC[C@@H](C(=O)O)CC2)C3)c1Cl
study_system: PD-L1 (PD-L1 aAPC/CHO-K1 cells, Jurkat-PD-1-NFAT effector cells)
assay_readout: EC50
result: < 100 nM

compound: Cc1c(Nc2nccc3cc(CN4CC[C@@H](O)C4)cnc23)cccc1-c1cccc(-c2nc3cc(CN4CC[C@@H](C(=O)O)C4)cc(C#N)c3o2)c1C
study_system: PD-L1 (PD-L1 aAPC/CHO-K1 cells, Jurkat-PD-1-NFAT effector cells)
assay_readout: EC50
result: < 100 nM

compound: Cc1c(NC(=O)c2nc3c(n2C)CCN(C)C3)cccc1-c1cccc(NC(=O)c2nc3c(n2C)CCN(C[C@H]2CC[C@@H](C(=O)O)CC2)C3)c1Cl
study_system: PD-L1 (PD-L1 aAPC/CHO-K1 cells, Jurkat-PD-1-NFAT effector cells)
assay_readout: EC50
result: < 100 nM

compound: Cc1c(-c2nc3cc(CN4CCC(C(=O)O)CC4)cc(C#N)c3o2)cccc1-c1cccc(-c2nc3c(s2)CN(C(=O)CN(C)C)C3)c1C
study_system: PD-L1 (PD-L1 aAPC/CHO-K1 cells, Jurkat-PD-1-NFAT effector cells)
assay_readout: EC50
result: < 100 nM

compound: Cc1c(-c2nc3c(s2)CN(C(=O)CN(C)C(C)C)C3)cccc1-c1cccc(NC(=O)c2nc3c(n2C)CCN(CCC2CCC(C(=O)O)CC2)C3)c1Cl (stereo not drawn)
study_system: PD-L1 (PD-L1 aAPC/CHO-K1 cells, Jurkat-PD-1-NFAT effector cells)
assay_readout: EC50
result: < 100 nM

compound: Cc1c(Nc2ncnc3cc(CN4CC[C@@H](O)C4)cnc23)cccc1-c1cccc(NC(=O)c2nc3c(n2C)CCN(C2CCC(C)(C(=O)O)CC2)C3)c1Cl (stereo partly drawn)
study_system: PD-L1 (PD-L1 aAPC/CHO-K1 cells, Jurkat-PD-1-NFAT effector cells)
assay_readout: EC50
result: < 100 nM

###

Biological target: PD-L1 on CD14+ cells in human whole blood (Homo sapiens, UniProt Q9NZQ7)
Construct: Cells were gated on CD14+ (BD Biosciences) and PD-L1 expression determined by mean fluorescence intensity
Sequence (Q9NZQ7 19-290): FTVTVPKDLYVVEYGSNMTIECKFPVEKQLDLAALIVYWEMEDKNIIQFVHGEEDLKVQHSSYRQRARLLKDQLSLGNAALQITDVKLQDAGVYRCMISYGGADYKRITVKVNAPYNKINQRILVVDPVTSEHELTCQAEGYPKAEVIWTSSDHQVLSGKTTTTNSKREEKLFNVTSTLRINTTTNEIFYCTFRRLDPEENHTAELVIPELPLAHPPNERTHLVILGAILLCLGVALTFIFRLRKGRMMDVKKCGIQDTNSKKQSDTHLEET
Experiment: PD-L1 whole blood internalization assay
Conditions: 1 ng/mL interferon γ, CD14+ gated, 24 hour

smiles_entry: Cc1c(NC(=O)c2nc3c(n2C)CCN(CCC24CCC(C(=O)O)(CC2)C4)C3)cccc1-c1cccc(NC(=O)c2nc3c(n2C)CCN(CCC24CCC(C(=O)O)(CC2)C4)C3)c1Cl
IC50: < 100 nM
--
smiles_entry: CCN(C)CC(=O)N1Cc2nc(-c3cccc(-c4cccc(Nc5nccc6cc(CN7CC[C@@H](C(=O)O)C7)cnc56)c4Cl)c3C)sc2C1
IC50: < 100 nM
--
smiles_entry: C[C@@H](O)CN1CCc2c(nc(C(=O)Nc3cccc(-c4cccc(NC(=O)c5nc6c(n5C)CCN(CCC57CCC(C(=O)O)(CC5)C7)C6)c4Cl)c3Cl)n2C)C1
IC50: < 100 nM
--
smiles_entry: Cc1c(Nc2nc(C(F)F)nc3cc(CN4CC[C@@H](O)C4)cnc23)cccc1-c1cccc(-c2nc3cc(CN4CCC(C(=O)O)CC4)cc(C#N)c3o2)c1C
IC50: < 100 nM
--
smiles_entry: Cc1c(Nc2nc(C(F)F)nc3cc(CN4CC[C@@H](O)C4)cnc23)cccc1-c1cccc(-c2nc3cc(CN4CC[C@@H](C(=O)O)C4)cc(C#N)c3o2)c1C
IC50: < 100 nM
--
smiles_entry: Cn1c(C(=O)Nc2cccc(-c3cccc(NC(=O)c4nc5c(n4C)CCN(CC46CCC(C(=O)O)(CC4)C6)C5)c3Cl)c2Cl)nc2c1CCN(CCC13CCC(C(=O)O)(CC1)C3)C2
IC50: < 100 nM
--
smiles_entry: Cc1c(Nc2nccc3cc(CN4CC[C@H](O)C4)cnc23)cccc1-c1cccc(-c2nc3cc(CN4CC[C@H](C(=O)O)C4)cc(C#N)c3o2)c1C
IC50: < 500 nM
--
smiles_entry: CN1CCc2c(nc(C(=O)Nc3cccc(-c4cccc(NC(=O)c5nc6c(n5C)CCN(CC[C@H]5CC[C@H](C(=O)O)CC5)C6)c4C#N)c3Cl)n2C)C1
IC50: < 100 nM
--
smiles_entry: Cc1c(NC(=O)c2nc3c(n2C)CCN(CC[C@H]2CC[C@H](C(=O)O)CC2)C3)cccc1-c1cccc(NC(=O)c2nc3c(n2C)CCN(C)C3)c1Cl
IC50: < 100 nM
--
smiles_entry: Cc1c(NC(=O)c2nc3c(n2C)CCN(C[C@H]2CC[C@@H](C(=O)O)CC2)C3)cccc1-c1cccc(NC(=O)c2nc3c(n2C)CCN(C)C3)c1Cl
IC50: < 100 nM
--
smiles_entry: CCN(C)CC(=O)N1Cc2nc(-c3cccc(-c4cccc(NC(=O)c5nc6c(n5C)CCN(C[C@H]5CC[C@H](C(=O)O)CC5)C6)c4Cl)c3C)sc2C1
IC50: < 500 nM

###

molecules and their reported EC50
System: PD-L1 (PD-L1 aAPC/CHO-K1 cells, Jurkat-PD-1-NFAT effector cells)
Experiment: Nuclear Factor of Activated T-cells (NFAT) assay
Assay type: cell-based
Settings: Cricetulus griseus; PD-L1 aAPC/CHO-K1 + Jurkat-PD-1-NFAT cells, 24 hours

molecule: CCN(C)CC(=O)N1Cc2nc(-c3cccc(-c4cccc(NC(=O)c5nc6c(n5C)CCN(CCC5CCC(C(=O)O)CC5)C6)c4Cl)c3C)sc2C1 (centres unmarked)
EC50: < 100 nM
//
molecule: Cc1c(Nc2nc(C(F)F)nc3cc(CN4CC[C@@H](O)C4)cnc23)cccc1-c1cccc(NC(=O)c2nc3c(n2C)CCN(CCC24CCC(C(=O)O)(CC2)C4)C3)c1Cl
EC50: < 10 nM
//
molecule: Cc1c(NC(=O)c2ccc(CNCCO)cn2)cccc1-c1cccc(NC(=O)c2ccc(CNCCO)cn2)c1Cl
EC50: < 100 nM
//
molecule: Cc1c(NC(=O)c2ccc(CN3CCC(C(=O)O)CC3)cn2)cccc1-c1cccc(NC(=O)c2ccc(CN3CC[C@@H](O)C3)cn2)c1Cl
EC50: < 100 nM
//
molecule: CCN(C)CC(=O)N1Cc2nc(-c3cccc(-c4cccc(NC(=O)c5nc6c(n5C)CCN(C[C@H]5CC[C@H](C(=O)O)CC5)C6)c4Cl)c3C)sc2C1
EC50: < 500 nM
//
molecule: Cn1c(C(=O)Nc2cccc(-c3cccc(NC(=O)c4nc5c(n4C)CCN(CC46CCC(C(=O)O)(CC4)C6)C5)c3Cl)c2Cl)nc2c1CCN(CCC13CCC(C(=O)O)(CC1)C3)C2
EC50: < 100 nM
//
molecule: CCN(C)CC(=O)N1Cc2nc(-c3cccc(-c4cccc(NC(=O)c5nc6c(n5C)CCN(C[C@H]5CC[C@@H](C(=O)O)CC5)C6)c4Cl)c3C)sc2C1
EC50: < 100 nM
//
molecule: Cc1c(Nc2nc(C(F)F)nc3cc(CN4CC[C@@H](O)C4)cnc23)cccc1-c1cccc(-c2nc3cc(CN4CC[C@@H](C(=O)O)C4)cc(C#N)c3o2)c1C
EC50: < 100 nM
//
molecule: Cn1c(C(=O)Nc2cccc(-c3cccc(NC(=O)c4nc5c(n4C)CCN(CCC46CCC(C(=O)O)(CC4)C6)C5)c3Cl)c2Cl)nc2c1CCN(CCC13CCC(C(=O)O)(CC1)C3)C2
EC50: < 100 nM
//
molecule: Cn1c(C(=O)Nc2cccc(-c3cccc(NC(=O)c4nc5c(n4C)CCN(CCC46CCC(C(=O)O)(CC4)C6)C5)c3C#N)c2Cl)nc2c1CCN(CCC13CCC(C(=O)O)(CC1)C3)C2
EC50: < 100 nM
//
molecule: Cc1c(Nc2nc(C(F)F)nc3cc(CN4CC[C@@H](O)C4)cnc23)cccc1-c1cccc(-c2nc3cc(CN4CC[C@@](C)(C(=O)O)C4)cc(C#N)c3o2)c1C
EC50: < 100 nM

###

Tested on: PD-L1 (PD-L1 aAPC/CHO-K1 cells, Jurkat-PD-1-NFAT effector cells)
Test: Nuclear Factor of Activated T-cells (NFAT) assay
Assay type: cell-based
Conditions: Cricetulus griseus; PD-L1 aAPC/CHO-K1 + Jurkat-PD-1-NFAT cells, 24 hours
pEC50: −log10 of the molar value.

molecule: Cc1c(NC(=O)c2nc3c(n2C)CCN(C[C@H]2CC[C@@H](C(=O)O)CC2)C3)cccc1-c1cccc(NC(=O)c2nc3c(n2C)CCN(C)C3)c1Cl [Compound 17]
pEC50: > 7.00
//
molecule: Cc1cc(C(=O)Nc2cccc(-c3cccc(NC(=O)c4ccc(CN5CCCC5)cn4)c3Cl)c2C)ncc1CN1CCCC[C@H]1C(=O)O [Compound 9]
pEC50: > 7.00
//
molecule: Cc1c(Nc2nccc3cc(CN4CC[C@@H](O)C4)cnc23)cccc1-c1cccc(-c2nc3cc(CN4CC[C@H](C(=O)O)C4)cc(C#N)c3o2)c1C [Compound 5]
pEC50: > 7.00

Values compiled from patent US20230149409A1.
